# TARGET DESC: Solute carrier organic anion transporter family member 1B3 (Homo sapiens, UniProt Q9NPD5)
# Sequence (Q9NPD5 whole entry): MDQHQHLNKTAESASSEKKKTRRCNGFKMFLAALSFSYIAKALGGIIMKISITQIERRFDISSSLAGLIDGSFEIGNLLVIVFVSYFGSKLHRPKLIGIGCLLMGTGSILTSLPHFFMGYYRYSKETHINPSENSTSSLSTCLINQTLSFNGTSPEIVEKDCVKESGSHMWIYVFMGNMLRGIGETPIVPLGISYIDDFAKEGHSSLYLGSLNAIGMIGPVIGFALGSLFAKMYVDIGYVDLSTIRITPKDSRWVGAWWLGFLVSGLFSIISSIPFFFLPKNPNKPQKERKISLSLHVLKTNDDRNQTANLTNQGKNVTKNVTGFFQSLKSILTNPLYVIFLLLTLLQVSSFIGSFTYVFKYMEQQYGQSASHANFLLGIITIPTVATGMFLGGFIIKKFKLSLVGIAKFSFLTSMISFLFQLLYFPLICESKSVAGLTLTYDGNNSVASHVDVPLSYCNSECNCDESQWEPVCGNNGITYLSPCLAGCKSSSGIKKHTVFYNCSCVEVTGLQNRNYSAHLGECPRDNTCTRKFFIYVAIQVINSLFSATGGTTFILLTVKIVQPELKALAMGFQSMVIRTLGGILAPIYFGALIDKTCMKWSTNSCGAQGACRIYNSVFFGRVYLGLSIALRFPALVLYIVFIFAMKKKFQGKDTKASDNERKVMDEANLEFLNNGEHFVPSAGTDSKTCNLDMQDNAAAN
PARAMETER MEASURED: pIC50
Interpret pIC50 as the negative base-10 log of the concentration measured in mol/L.

Worked set:
[
  {
    "SMILES REPRESENTATION": "O=C(O)CCCc1ccc(N(CCCl)CCCl)cc1",
    "TARGET DESC": "Solute carrier organic anion transporter family member 1B3 (Homo sapiens, UniProt Q9NPD5)",
    "pIC50": 4.09
  },
  {
    "SMILES REPRESENTATION": "CC(=O)O[C@H]1C(=O)[C@@]2(C)[C@H]([C@H](OC(=O)c3ccccc3)[C@]3(O)C[C@H](OC(=O)[C@H](O)[C@@H](NC(=O)c4ccccc4)c4ccccc4)C(C)=C1C3(C)C)[C@]1(OC(C)=O)CO[C@@H]1C[C@@H]2O",
    "TARGET DESC": "Solute carrier organic anion transporter family member 1B3 (Homo sapiens, UniProt Q9NPD5)",
    "pIC50": 6.59
  },
  {
    "SMILES REPRESENTATION": "CC[C@]1(O)C[C@H]2CN(CCc3c([nH]c4ccccc34)[C@@](C(=O)OC)(c3cc4c(cc3OC)N(C=O)[C@H]3[C@@](O)(C(=O)OC)[C@H](OC(C)=O)[C@]5(CC)C=CCN6CC[C@]43[C@@H]65)C2)C1",
    "TARGET DESC": "Solute carrier organic anion transporter family member 1B3 (Homo sapiens, UniProt Q9NPD5)",
    "pIC50": 4.43
  },
  {
    "SMILES REPRESENTATION": "CC[C@]1(O)C[C@@H]2CN(CCc3c([nH]c4ccccc34)[C@@](C(=O)OC)(c3cc4c(cc3OC)N(C)[C@H]3[C@@](O)(C(=O)OC)[C@H](OC(C)=O)[C@]5(CC)C=CCN6CC[C@]43[C@@H]65)C2)C1",
    "TARGET DESC": "Solute carrier organic anion transporter family member 1B3 (Homo sapiens, UniProt Q9NPD5)",
    "pIC50": 4.36
  }
]

Please find the next molecule below.
Query: pIC50; subject: O=C1c2c(O)ccc(O)c2C(=O)c2c(NCCNCCO)ccc(NCCNCCO)c21
5.47
